Recorded measurements of pIC50, one per entry
System: Ba/F3 KIT mutant cells
Assay: Ba/F3 mutant KIT Cell Proliferation Assays (resazurin)
Type: cell-based
Conditions: Mus musculus, BaF3; Ba/F3 KIT exon11del-V654A mutant cell proliferation; read-out: exon11del-V654A IC50
pIC50: −log10 of the molar value.
Reported Property: pIC50

COCCOc1cc(F)c2c(Nc3ccc(NC(=O)CC(=O)N4CCC[C@@H]4C)cc3)ncnc2c1	6.00 to 7.00
COCCOc1cc(F)c2c(Nc3ccc(NC(=O)CC(=O)NC(C)(C)C)cc3)ncnc2c1	7.00 to 8.00
COCCOc1cc(F)c2c(Nc3ccc(NC(=O)CC(=O)NC[C@@H]4CCCO4)cc3)ncnc2c1	7.00 to 8.00
COCCOc1cc(F)c2c(Nc3ccc(NC(=O)CC(=O)N4CCCC[C@H]4C(F)(F)F)cc3)ncnc2c1	7.00 to 8.00
COCCOc1cc(F)c2c(Nc3ccc(NC(=O)CC(=O)NCC4(C)CC4)cc3)ncnc2c1	≥ 8.00
COCCOc1cc(F)c2c(Nc3ccc(NC(=O)NCCC4CC4)cc3)ncnc2c1	7.00 to 8.00
CO[C@H](C)COc1cc(F)c2c(Nc3ccc(NC(=O)NCCC(C)(C)F)cc3)ncnc2c1	7.00 to 8.00

* * *

System: Ba/F3 KIT mutant cells
Experiment: Ba/F3 mutant KIT Cell Proliferation Assays (resazurin)
Assay type: cell-based
Conditions: Mus musculus, BaF3; Ba/F3 KIT exon11del-V654A mutant cell proliferation; read-out: exon11del-V654A IC50
This listing pairs molecules with measured IC50.
Reported Property: IC50

COCCOc1cc(F)c2c(Nc3ccc(NC(=O)CN(C)C(=O)C(C)C)cc3)ncnc2c1	10 to 100 nM
COc1cc2ncnc(Nc3ccc(NC(=O)CC(=O)NCC(C)(C)C)cc3)c2cc1OCCCN1CCOCC1	> 1000 nM
COCCOc1cc(F)c2c(Nc3ccc(NC(=O)CC(=O)NCC4CC(C)(C)C4)cc3)ncnc2c1	≤ 10 nM
COCCOc1cc(F)c2c(Nc3ccc(NC(=O)CC(=O)N4CCCC4(C)C)cc3)ncnc2c1	10 to 100 nM
COCCCc1ccc2c(Nc3ccc(NC(=O)NCCC(C)(C)F)cc3)cnnc2c1	10 to 100 nM

* * *

Test system: Ba/F3 KIT mutant cells
Test: Ba/F3 mutant KIT Cell Proliferation Assays (resazurin)
Type: cell-based
Settings: Mus musculus, BaF3; Ba/F3 KIT exon11del-V654A mutant cell proliferation; read-out: exon11del-V654A IC50
The molecules listed here are annotated with their IC50.
Reported Property: IC50

COCCOc1cc(F)c2c(Nc3ccc(NC(=O)C(=O)NCCC(C)(C)C)cc3)ncnc2c1 [Example 125]	10 to 100 nM
CC(C)(F)CCNC(=O)Nc1ccc(Nc2ncnc3cc(OC4CCOCC4)cc(F)c23)cc1 [Example 138]	≤ 10 nM
COCCOc1cc(F)c2c(Nc3ccc(NC(=O)CC(=O)NCC(C)(C)C)cc3)ncnc2c1 [Example 4]	10 to 100 nM
COCCOc1cc(F)c2c(Nc3ccc(NC(=O)CCCC(C)(C)F)cc3)ncnc2c1 [Example 45]	10 to 100 nM
COCCOc1cc(F)c2c(Nc3ccc(NC(=O)CC4CCN(C)CC4)cc3)ncnc2c1 [Example 40]	> 1000 nM
COc1cc(F)c2c(Nc3ccc(NC(=O)NCCC(C)(C)F)cc3)ncnc2c1 [Example 203]	10 to 100 nM
COC[C@H](C)Oc1cc(F)c2c(Nc3ccc(NC(=O)NCCC(C)(C)F)cc3)ncnc2c1 [Example 157]	100 to 1000 nM
COCCOc1cc(F)c2c(Nc3ccc(NC(=O)CC(=O)NC(C)(C)C4CC4)cc3)ncnc2c1 [Example 131]	≤ 10 nM
CC(C)(F)CCNC(=O)Nc1ccc(Nc2ncnc3cc(OCCCN4CCOCC4)cc(F)c23)cc1 [Example 195]	10 to 100 nM
COCCOc1cc(F)c2c(Nc3ccc(NC(=O)NCCCC(C)(C)C#N)cc3)ncnc2c1 [Example 99]	≤ 10 nM
COCCOc1cc(F)c2c(Nc3ccc(NC(=O)CC(=O)N4CCOCC4(C)C)cc3)ncnc2c1 [Example 154]	100 to 1000 nM
COCCOc1cc(F)c2c(Nc3ccc(NC(=O)CC(=O)NCC(C)C)cc3)ncnc2c1 [Example 81]	10 to 100 nM
COCCOc1cc(F)c2c(Nc3ccc(NC(=O)NCCC4(C#N)CC4)cc3)ncnc2c1 [Example 35]	10 to 100 nM
CC(C)(F)CCNC(=O)Nc1ccc(Nc2ncnc3cc(OC[C@@H]4CCCO4)cc(F)c23)cc1 [Example 162]	10 to 100 nM

* * *

# pIC50 values compiled below
Test system: Ba/F3 KIT mutant cells
Experiment: Ba/F3 mutant KIT Cell Proliferation Assays (resazurin)
Type: cell-based
Details: Mus musculus, BaF3; Ba/F3 KIT exon11del-V654A mutant cell proliferation; read-out: exon11del-V654A IC50
pIC50: −log10 of the molar value.
Reported Property: pIC50

COCCOc1cc(F)c2c(Nc3ccc(NC(=O)NCCOC(F)(F)F)cc3)ncnc2c1	7.00 to 8.00
COCCOc1ccc2c(Nc3ccc(NC(=O)NCCC(C)(C)F)cc3)ncnc2c1	6.00 to 7.00
COCCOc1cc(F)c2c(Nc3ccc(NC(=O)CC(=O)NC4CCCCC4)cc3)ncnc2c1	≥ 8.00
CC(C)(F)CCNC(=O)Nc1ccc(Nc2ncnc3cc(OC[C@@H]4CCOC4)cc(F)c23)cc1	7.00 to 8.00
COCCOc1cc(F)c2c(Nc3ccc(NC(=O)CC(=O)N(C)C(C)(C)C)cc3)ncnc2c1	≥ 8.00
CCN(C(=O)CC(=O)Nc1ccc(Nc2ncnc3cc(OCCOC)cc(F)c23)cc1)C(C)C	7.00 to 8.00
COCCOc1cc(F)c2c(Nc3ccc(NC(=O)CC(=O)N[C@H]4C[C@@H](OC)C4)cc3)ncnc2c1	7.00 to 8.00
COCCOc1cc(F)c2c(Nc3ccc(NC(=O)CC(=O)NCC(C)(C)C(F)(F)F)cc3)ncnc2c1	≥ 8.00
COCCOc1ccc2ncnc(Nc3ccc(NC(=O)CC(=O)NC(C)(C)C)cc3)c2c1F	< 6.00
COCCOc1cc(F)c2c(Nc3ccc(NC(=O)CC(=O)N(C(C)C)C(C)C)cc3)ncnc2c1	< 6.00
COCCOc1cc(F)c2c(Nc3ccc(NC(=O)CC(=O)N4CCCC4)cc3)ncnc2c1	< 6.00
COCCOc1cc(F)c2c(Nc3ccc(NC(=O)C4(C(=O)NCC(C)(C)C)CC4)cc3)ncnc2c1	6.00 to 7.00
COCCOc1cc(F)c2c(Nc3ccc(NC(=O)N4CCC(C(C)(C)C)C4)cc3)ncnc2c1 (stereo not drawn)	7.00 to 8.00
COCCOc1cc(F)c2c(Nc3ccc(NC(=O)CCC4CCN(C)CC4)cc3)ncnc2c1	6.00 to 7.00
COCCOc1cc(F)c2c(Nc3ccc(NC(=O)NC4CC(C)(C)C4)cc3)ncnc2c1	7.00 to 8.00

* * *

Catalogue of pIC50 readings, one per entry.
Tested on: Ba/F3 KIT mutant cells
Assay: Ba/F3 mutant KIT Cell Proliferation Assays (resazurin)
Assay type: cell-based
Conditions: Mus musculus, BaF3; Ba/F3 KIT exon11del-V654A mutant cell proliferation; read-out: exon11del-V654A IC50
Description: Ba/F3 KIT Mutant Cell Line Transduction and Expansion Several different KIT cDNA encoding various primary and secondary mutations were cloned into a pLV(Exp]-CMV>(cDNA):IRES:puro vector. These vectors were constructed and packaged by VectorBuilder. […] A serial dilution of test compound was dispensed into a 384-well black clear bottom plate (Corning, Corning, NY). […] Plates were read on a Synergy2 reader (Biotek, Winooski, VT) using an excitation of 540 nm and an emission of 600 nm. […]
pIC50: −log10 of the molar value.
Reported Property: pIC50

COCCOc1cc(F)c2c(Nc3ccc(NC(=O)CC(=O)NCC4(C)CCCO4)cc3)ncnc2c1 (centres unmarked) [Example 110]	7.00 to 8.00
COCCOc1cc(F)c2c(Nc3ccc(NC(=O)NC4CCC(C)(C)C4)cc3)ncnc2c1 (centres unmarked) [Example 34]	≥ 8.00
COCCOc1ccc2c(Nc3ccc(NC(=O)CC(=O)NCC(C)(C)C)cc3)ncnc2c1 [Example 221]	6.00 to 7.00
COCCOc1cc(F)c2c(Nc3ccc(NC(=O)C(=O)NCC(C)(C)C)cc3)ncnc2c1 [Example 126]	6.00 to 7.00
COCCOc1ccc2ncnc(Nc3ccc(NC(=O)CC(=O)NCC(C)(C)C)cc3)c2c1F [Example 217]	< 6.00
COCCOc1cc(F)c2c(Nc3ccc(NC(=O)NCCC(C)(C)C)cc3)ncnc2c1 [Example 9]	≥ 8.00
COCCOc1cc(F)c2c(Nc3ccc(NC(=O)CC4CCC(C)(C)CC4)cc3)ncnc2c1 [Example 69]	7.00 to 8.00
COCCOc1cc(F)c2c(Nc3ccc(NC(=O)CC(=O)NCC4(C#N)CC4)cc3)ncnc2c1 [Example 98]	7.00 to 8.00
COCCOc1cc(F)c2c(Nc3ccc(NC(=O)CC(=O)N[C@H]4C[C@H](OC)C4)cc3)ncnc2c1 [Example 117]	7.00 to 8.00
COCCOc1cc(OC)c2c(Nc3ccc(NC(=O)NCCC(C)(C)F)cc3)ncnc2c1 [Example 181]	7.00 to 8.00
COCCOc1cc(F)c2c(Nc3ccc(NC(=O)CC(=O)NC4COC4)cc3)ncnc2c1 [Example 93]	6.00 to 7.00
COCCOc1cc(F)c2c(Nc3ccc(NC(=O)CC(=O)NC4CC(F)(F)C4)cc3)ncnc2c1 [Example 113]	7.00 to 8.00
COCCOc1cc(F)c2c(Nc3ccc(NC(=O)CC(=O)NCC4CC5(CCC5)C4)cc3)ncnc2c1 [Example 118]	≥ 8.00
COCCOc1cc(F)c2c(Nc3ccc(NC(=O)CC(=O)NCC4(C)COC4)cc3)ncnc2c1 [Example 132]	7.00 to 8.00
COCCOc1cc(F)c2c(Nc3ccc(NC(=O)C4(C(=O)NCC(C)C)CC4)cc3)ncnc2c1 [Example 71]	7.00 to 8.00
COCCOc1cc(F)c2c(Nc3ccc(NC(=O)NCCC(C)(C)F)c(F)c3)ncnc2c1 [Example 64]	7.00 to 8.00
COCCOc1cc(F)c2c(Nc3ccc(NC(=O)NC4CC(C)(C)C4)nc3)ncnc2c1 [Example 25]	< 6.00
COCCOc1cc(F)c2c(Nc3ccc(NC(=O)CC(=O)N(C)CC(C)(C)C)cc3)ncnc2c1 [Example 51]	7.00 to 8.00
COCCOc1cc(F)c2c(Nc3ccc(NC(=O)CC(=O)N4CCCCC4(C)C)cc3)ncnc2c1 [Example 142]	7.00 to 8.00
CC(C)(F)CCNC(=O)Nc1ccc(Nc2ncnc3cc(OCC4CCOCC4)cc(F)c23)cc1 [Example 123]	≥ 8.00
